Attribution: the DeepSol protein solubility set

# EXPERIMENTAL_PROTOCOL: soluble on expression in E. coli; label from the status in PepcDB or PDB records
RESULT_TYPE: soluble on expression in E. coli

>>> value_observed("MTGRTGGNGSTQAQPERVMLVGVMLDKDGTGSSAARLNGFQTALAEAVELVKAAGGDSVRVETAKRDRPHTALFVGTGKAAELSEAVAADGIDLVVFNHELTPTQERNLEKELKCRVLDRVGLILAIFARRARTQEGRLQVELAQLSHLAGRLIRGYGHLQSQRGGIGMKGPGETKLETDRRLIAHRINALKKQLANLKKQRALRRKSRESGTIKTFALVGYTNVGKSSLFNRLTKSGIYAKDQLFATLDTTARRLYISPECSIILTDTVGFVSDLPHKLISAFSATLEETAQADVLLHVVDAAAPNSGQQIEDVENVLQEIHAGDIPCIKVYNKTDLLPSEEQNTGIWRDAAGKIAAVRISVAENTGIDALREAIAESCAAAPLEHHHHHH")
"not soluble"
>>> value_observed("MSLTEKCVIKIGGSVLKDGSSLPRVMDIISHFRSPILVVSAFGGITDALYRFYEYDESRMDKLRDLLLMHLGILWKYNIEAHPEISIQDSSILDQDAYVSYGEKMSAFTLARFLTGNGIPAAPIYTDEAGLIVEEISKERTVDLEGSRAFFENIARVETSGKVPVVTGFFGIDRYGKTRILGRNSSDYSAVAVAAILGIREVILIKDVPGIYMNLEDRTSIVNRIDYETALRIVDRGSKVVHRAALRLAMKMGMNLLITSPENLESGTVIGDLFEGHHHHHH")
"soluble"
>>> value_observed("MILVTGGARSGKSRHAEALIGDAPQVLYIATSQILDDEMAARIQHHKDGRPAHWRTAECWRHLDTLITADLAPDDAILLECITTMVTNLLFALGGENDPEQWDYAAMERAIDDEIQILIAACQRCPAKVVLVTNEVGMGIVPENRLARHFRDIAGRVNQRLAAAADEVWLVVSGIGVKIK")
"soluble"
>>> value_observed("EVPTIDGRAKIRIEAGTQPGKMLRLRNKGLPSVNGYGMGDQLVNVNVYIPESIDAKDEQAIAAMENSDSFKPTDAARKDIDKKYREMLD")
"not soluble"
